- System under test: recombinant human his-UBA6 enzyme (Homo sapiens (Human), UniProt A0AVT1)
- Sequence (A0AVT1 whole entry): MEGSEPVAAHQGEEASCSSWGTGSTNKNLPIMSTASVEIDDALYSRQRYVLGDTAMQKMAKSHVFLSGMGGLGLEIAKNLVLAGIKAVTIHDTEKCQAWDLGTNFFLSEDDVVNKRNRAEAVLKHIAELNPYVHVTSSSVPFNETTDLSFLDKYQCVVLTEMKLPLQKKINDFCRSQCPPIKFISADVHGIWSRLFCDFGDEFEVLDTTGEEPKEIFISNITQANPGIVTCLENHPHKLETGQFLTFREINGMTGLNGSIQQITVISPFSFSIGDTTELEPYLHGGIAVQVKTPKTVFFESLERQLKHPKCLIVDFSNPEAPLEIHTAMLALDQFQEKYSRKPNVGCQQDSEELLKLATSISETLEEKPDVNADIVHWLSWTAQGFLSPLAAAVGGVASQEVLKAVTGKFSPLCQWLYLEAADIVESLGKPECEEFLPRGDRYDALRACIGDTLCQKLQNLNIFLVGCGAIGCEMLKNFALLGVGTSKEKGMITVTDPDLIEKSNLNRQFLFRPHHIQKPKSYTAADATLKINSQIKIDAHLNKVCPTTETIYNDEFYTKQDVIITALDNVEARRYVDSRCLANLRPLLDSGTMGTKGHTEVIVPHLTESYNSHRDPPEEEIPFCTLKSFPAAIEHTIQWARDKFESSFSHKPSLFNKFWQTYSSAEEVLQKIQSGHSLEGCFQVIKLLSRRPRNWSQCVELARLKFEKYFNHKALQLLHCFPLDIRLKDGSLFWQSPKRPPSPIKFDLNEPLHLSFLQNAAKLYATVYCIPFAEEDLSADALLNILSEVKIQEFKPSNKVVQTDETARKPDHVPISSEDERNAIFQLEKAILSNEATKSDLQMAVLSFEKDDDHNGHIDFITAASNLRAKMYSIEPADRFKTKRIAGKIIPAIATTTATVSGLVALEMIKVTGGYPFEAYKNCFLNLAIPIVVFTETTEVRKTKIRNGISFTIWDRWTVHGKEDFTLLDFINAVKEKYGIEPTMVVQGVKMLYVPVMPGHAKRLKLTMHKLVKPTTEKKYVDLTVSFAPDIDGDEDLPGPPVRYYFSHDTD
- Measurement description: UBA6 AlphaScreen Assay
- Type: biochemical
- Study conditions: compound at 0.123 μM
Counter-ions that a name gives are not always drawn.
Readout label: inhibition at 0.123 µM (%)

Solved cases below.
NS(=O)(=O)OC[C@@H]1C[C@@H](n2ccc3c(-c4cc5ccc(Cl)cc5[nH]4)ncnc32)C[C@@H]1O ... 91
N#Cc1ccc2cc(-c3ncnc4c3ccn4[C@@H]3C[C@@H](COS(N)(=O)=O)[C@@H](O)C3)[nH]c2c1 ... 86

I. COc1ccc2[nH]c(-c3ncnc4c3ccn4[C@@H]3C[C@@H](COS(N)(=O)=O)[C@@H](O)C3)cc2c1
II. NS(=O)(=O)OC[C@@H]1C[C@@H](n2ccc3c(-c4cc5cc(F)c(Cl)cc5[nH]4)ncnc32)C[C@@H]1O
Task item: Larger number for inhibition at 0.123 µM: I , or II ? Give the label under which the chosen entry appears.
Reply: I

1. NS(=O)(=O)OC[C@@H]1C[C@@H](n2ccc3c(-c4cc5ccccc5[nH]4)ncnc32)C[C@@H]1O [Compound I-01, HCl]
2. Cc1c(-c2ncnc3c2ccn3[C@@H]2C[C@@H](COS(N)(=O)=O)[C@@H](O)C2)[nH]c2ccccc12
Task item: Recorded inhibition at 0.123 µM values differ for 1 and 2 ; which one is higher? Indicate your choice by writing its label.
Reply: 1
(1: 87%, 2: 16%)

---

- System under test: recombinant human his-UBA6 enzyme (Homo sapiens (Human))
- Measurement description: UBA6 AlphaScreen Assay
Structures can show the parent of a compound that is named as a salt.
Here, each record is paired with measured IC50 data.

Before answering, review these 3 worked examples.
Cc1nc(-c2cc3ccccc3[nH]2)c2ccn([C@@H]3C[C@@H](COS(N)(=O)=O)[C@@H](O)C3)c2n1 [Compound I-08, HCl] ... ≤ 0.05 µM
COc1ccc2cc(-c3ncnc4c3ccn4[C@@H]3C[C@@H](COS(N)(=O)=O)[C@@H](O)C3)[nH]c2c1 [Compound I-07] ... ≤ 0.05 µM
NS(=O)(=O)OC[C@@H]1C[C@@H](n2ccc3c(-c4cc5ccccc5[nH]4)ncnc32)C[C@@H]1O [Compound I-01, HCl] ... ≤ 0.05 µM

Task item: Entry Cn1c(-c2ncnc3c2ccn3[C@@H]2C[C@@H](COS(N)(=O)=O)[C@@H](O)C2)cc2ccccc21 [Compound I-02, HCl] : reported IC50 = ?
Reply: 0.05 to 2 µM

---

This listing pairs compounds with measured pIC50.
- System under test: recombinant human his-UBA6 enzyme (Homo sapiens (Human), UniProt A0AVT1)
- Measurement description: UBA6 AlphaScreen Assay
pIC50: −log10 of the molar value.

Solved cases below.
N#Cc1ccc2cc(-c3ncnc4c3ccn4[C@@H]3C[C@@H](COS(N)(=O)=O)[C@@H](O)C3)[nH]c2c1 ... ≥ 7.30
COc1cccc2cc(-c3ncnc4c3ccn4[C@@H]3C[C@@H](COS(N)(=O)=O)[C@@H](O)C3)[nH]c12 ... 5.70 to 7.30
NS(=O)(=O)OC[C@@H]1C[C@@H](n2ccc3c(-c4cc5cc(F)ccc5[nH]4)ncnc32)C[C@@H]1O ... 5.70 to 7.30
NS(=O)(=O)OC[C@@H]1C[C@@H](n2ccc3c(-c4cc5ccc(Cl)cc5[nH]4)ncnc32)C[C@@H]1O ... ≥ 7.30
NS(=O)(=O)OC[C@@H]1C[C@@H](n2ccc3c(-c4cc5cc(F)c(Cl)cc5[nH]4)ncnc32)C[C@@H]1O ... 5.70 to 7.30

Task item: // lookup pIC50 | system=recombinant human his-UBA6 enzyme (Homo sapiens (Human), UniProt A0AVT1) | key= Cc1c(-c2ncnc3c2ccn3[C@@H]2C[C@@H](COS(N)(=O)=O)[C@@H](O)C2)[nH]c2ccccc12
Reply: 5.70 to 7.30
